Numbers sourced from PubChem BioAssay (NCATS).

# assayed.target: Rap guanine nucleotide exchange factor 4 (Homo sapiens) (UniProt Q8WZA2)
# Sequence (Q8WZA2 whole entry, looked up): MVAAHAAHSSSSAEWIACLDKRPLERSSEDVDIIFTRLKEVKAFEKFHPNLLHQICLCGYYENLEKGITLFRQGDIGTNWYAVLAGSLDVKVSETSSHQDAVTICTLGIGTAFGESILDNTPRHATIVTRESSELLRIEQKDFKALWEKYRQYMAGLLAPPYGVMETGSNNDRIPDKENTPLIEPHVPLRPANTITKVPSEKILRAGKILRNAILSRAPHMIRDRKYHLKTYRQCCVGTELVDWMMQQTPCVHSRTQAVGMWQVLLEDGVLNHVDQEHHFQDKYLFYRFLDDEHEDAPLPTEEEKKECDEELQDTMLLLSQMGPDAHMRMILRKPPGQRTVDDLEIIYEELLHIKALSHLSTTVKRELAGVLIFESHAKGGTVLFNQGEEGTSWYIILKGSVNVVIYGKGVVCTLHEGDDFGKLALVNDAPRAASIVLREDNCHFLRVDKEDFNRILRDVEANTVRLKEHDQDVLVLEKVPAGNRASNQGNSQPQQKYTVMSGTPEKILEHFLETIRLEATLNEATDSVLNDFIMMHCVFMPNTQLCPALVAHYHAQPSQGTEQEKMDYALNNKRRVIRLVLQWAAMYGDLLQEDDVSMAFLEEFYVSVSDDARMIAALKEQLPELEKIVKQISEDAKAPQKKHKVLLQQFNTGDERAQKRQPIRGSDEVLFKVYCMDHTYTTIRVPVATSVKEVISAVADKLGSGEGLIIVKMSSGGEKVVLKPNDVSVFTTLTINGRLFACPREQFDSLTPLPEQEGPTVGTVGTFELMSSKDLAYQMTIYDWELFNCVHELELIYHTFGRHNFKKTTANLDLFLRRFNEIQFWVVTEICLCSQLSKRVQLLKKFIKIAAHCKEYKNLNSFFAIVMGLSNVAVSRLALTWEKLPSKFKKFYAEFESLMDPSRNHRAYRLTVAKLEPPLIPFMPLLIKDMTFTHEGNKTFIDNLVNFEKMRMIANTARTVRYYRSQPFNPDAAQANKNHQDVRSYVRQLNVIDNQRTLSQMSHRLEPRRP
# assay.name: Confirmatory qHTS for antagonist of cAMP-regulated guanine nucleotide exchange factor 4 (EPAC2) (AID 1645885); note: nearly all actives have a fitted effect of over 25% in size
# condition.parameters: EPAC2 Rap1B-BODIPY-GDP exchange fluorescence, biochemical; series mostly up to 12.7 µM
Results filed as inconclusive are left out. Calls of active or inactive are those of the source. Calls come from the whole dose curve; as a rule, active = well fitted inhibition curve with a large enough effect; inconclusive = small, poorly fitted or top-dose-only effect; inactive = no such curve, though single readings can be large or run the other way.
Possible outcomes: active, inactive

                                    molecule       cat
 0  COc1ccc2cc(-c3nc(Cl)c4c5c(sc4n3)CCCC5)c(=O)oc2c1  inactive
 1  Cc1ccc2c(c1)N(Cc1cccc(Cl)c1)C(=O)c1cccnc1O2    active
 2    Cc1ccc2[nH]cc(/C=C/c3cc[n+](C)cc3)c2c1  inactive
 3  CCCN1CCN(c2ncnc3sc(C(=O)Nc4ccc(OC(F)(F)F)cc4)c(C)c23)CC1  inactive
 4              CSc1ccccc1C(=O)Nc1ccc(C)cc1C  inactive
 5  Cc1ccc(CNC(=O)c2cccc3c2C(=O)c2ccc(N4CCC(C)CC4)cc2S3(=O)=O)cc1  inactive
 6  CCOc1ccc2oc(C(=O)N(C)CC(=O)Nc3ccc(OCC)c(OCC)c3)c(C)c2c1  inactive
 7    CN(C)c1ccc(/C=C/c2ccnc3c(Cl)cccc23)cc1  inactive
 8  Cc1ccc(CNC(=O)COc2ccc(C(=O)c3ccc(F)cc3)cc2)cc1  inactive
 9          O=C(/C=C/c1ccco1)Nc1cccc2cccnc12  inactive
10  Cc1cccc(S(=O)(=O)NC(=O)C2(C)CCN2C(=O)Cc2cc(F)ccc2F)c1 (centres undefined)  inactive
11  CC1=C(C(=O)OC(C)C)C(c2ccc(C)o2)C(C(=O)OC(C)C)=C(C)N1    active
12    O=C1C=C(c2c(O)ccc3ccccc23)c2ccccc2C1=O    active
13  CCN(CC(=O)Nc1ccccc1OC)C(=O)c1ccc(N(C)S(=O)(=O)c2ccc(C)cc2)cc1  inactive
14  CCOC(=O)C1=C(C)NC(SC)=C(C#N)C1CC(C)C (centres undefined)  inactive
15  Cc1ccc(N=Cc2c(O)n(-c3nccs3)c(=O)c3ccccc23)c(C)c1  inactive
16  Nc1c(C(=O)C2CC2)sc2nc(-c3cccs3)cc(C(F)(F)F)c12    active
17  CCCCn1c(N)c(N(CCOC)C(=O)c2cccc(S(=O)(=O)N(C)c3ccc(C)cc3)c2)c(=O)[nH]c1=O  inactive
18  O=C(c1ccco1)N1CCC2(CC1)CN(c1cccc(-c3ccccc3)c1)C2  inactive
